Target: T1, human CCR8 (human, UniProt P51685 1-355)
T1 construct: whole, on cells; also called hCCR8
T1 sequence (P51685 whole entry): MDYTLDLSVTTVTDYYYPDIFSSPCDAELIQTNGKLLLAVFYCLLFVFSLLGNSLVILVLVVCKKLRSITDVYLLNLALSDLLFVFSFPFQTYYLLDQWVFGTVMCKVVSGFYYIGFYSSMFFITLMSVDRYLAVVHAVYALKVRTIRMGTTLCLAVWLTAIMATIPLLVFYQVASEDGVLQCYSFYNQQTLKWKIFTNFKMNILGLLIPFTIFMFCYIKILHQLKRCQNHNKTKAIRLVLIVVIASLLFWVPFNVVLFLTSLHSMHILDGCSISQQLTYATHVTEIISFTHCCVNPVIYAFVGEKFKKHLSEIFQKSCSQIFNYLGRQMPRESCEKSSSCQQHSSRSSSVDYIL
Assay: FACS, competition with AF647-human CCL1 on CHO-K1-human CCR8 cells
Each entry below carries its recorded Max Inhibition (%).
Give your result in % as a bare value.

Example cases with answers are listed next.
Hu149-8 (antibody, V domains shown, humanized IgG) VH: EVQLVESGGGLVQPGGSLKLSCAASGFTFNTYAMNWVRQASGKGLEWVGRIRSKSNFYATYYAASVKGRFTISRDDSKNTAYLQMNSLKTEDTAVYYCTRGRDYGSSYAMDYWGQGTLVTVSS VL: DIVMTQSPLSLPVTPGEPASISCRSSKSLLHSNANTYLYWYLQKPGQSPQLLIYRMSNLASGVPDRFSGSGSGTDFTLKISRVEAEDVGVYYCMQHLEYPLTFGGGTKVELK; 86.5
Hu149-7 (antibody, V domains shown, humanized IgG) VH: EVQLVESGGGLVQPGGSLKLSCAASGFTFNTYAMNWVRQASGKGLEWVGRIRSKSNFYATAYAASVKGRFTISRDDSKNTAYLQMNSLKTEDTAVYYCVRGRDYGSSYAMDYWGQGTLVTVSS VL: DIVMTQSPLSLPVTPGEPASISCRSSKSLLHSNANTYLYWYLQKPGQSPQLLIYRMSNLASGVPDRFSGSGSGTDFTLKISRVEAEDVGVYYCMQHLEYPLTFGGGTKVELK; 59

# input for lookup
-- ask So what does the record say about Max Inhibition (%) for Hu149-5 (antibody, V domains shown, humanized IgG) VH: EVQLVESGGGLVQPGGSLKLSCAASGFTFNTYAMNWVRQASGKGLEWVGRIRSKSNFYATYYAASVKGRFTISRDDSKNTAYLQMNSLKTEDTAVYYCVRGRDYGSSYAMDYWGQGTLVTVSS VL: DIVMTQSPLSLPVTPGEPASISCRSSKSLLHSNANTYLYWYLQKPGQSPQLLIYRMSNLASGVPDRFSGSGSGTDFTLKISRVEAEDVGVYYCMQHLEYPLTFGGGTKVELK ?
-- reply 57.3
